Measured Plant response rating, Lambsquarters accompanies every entry in the list below.
# Tested on: lambsquarters
# PROCEDURE_TEXT: Test B pre-/postemergence herbicide test
# Type: in vivo, Chenopodium album
# MEASUREMENT_PARAMETERS: preemergence, 125 g ai/ha; 0 to 100 scale, 0 is no effect, 100 is complete control
MEASUREMENT_NAME: Plant response rating, Lambsquarters

{"SMILES_INPUT": "CCn1nc(C(C)(C)C)cc1C(=O)Nc1cccc(C(C)=NO)c1", "EXPERIMENTAL_VALUE": 100}
{"SMILES_INPUT": "CCn1nc(C(C)(C)C)cc1C(=O)Nc1ccc(C)c(C(=O)OC(C)C)c1", "EXPERIMENTAL_VALUE": 0}
{"SMILES_INPUT": "CCn1nc(C(C)(C)C)cc1C(=O)Nc1cccc2c1CNC2=O", "EXPERIMENTAL_VALUE": 0}
{"SMILES_INPUT": "CCn1nc(C(C)(C)C)cc1C(=O)Nc1cccc(C(=O)OC)c1", "EXPERIMENTAL_VALUE": 0}
